protocol-text: growth inhibitors of H69AR lung tumor, primary screen, human, duplicate replicates (AID 580);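 note: 100% = mean luminescence of untreated wells and 0% = no signal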
experimental-conditions: H69AR lung tumor cells viability, ATP luminescence, 72 h; at 10 µM; stronger effect = lower value
observable: viability (%)
Lab book: enter the figure in %, no units written.

IN: What value of measured viability is listed for "COCCn1c(=O)[nH]c2cc(C(=O)NCc3cccnc3)ccc2c1=O" ?
OUT: 97.9

IN: How about this molecule: "COc1ccc(N2CCN(c3ccc(N)cc3C#N)CC2)cc1"
OUT: 95

IN: How about this molecule: "CCOCCCNC(=O)CS(=O)(=O)Cc1nc(-c2cccc(OC)c2)oc1C"
OUT: 84

IN: How about this molecule: "Cn1c(SCc2nnc3n2CCCCC3)nc2ccccc21"
OUT: 98.2

IN: How about this molecule: "CCSc1ccccc1C(=O)Nc1cccc(OC)c1"
OUT: 98.4

IN: How about this molecule: "Cc1ccc(S(=O)(=O)N2CCC(C(=O)N[C@@H](Cc3ccccc3)C(=O)O)CC2)cc1"
OUT: 86.9

----------
protocol-text: reversal of MRP1-mediated doxorubicin resistance, pilot screen, H69AR cells, doxorubicin co-treatment (AID 601)
experimental-conditions: H69AR cells, CellTiter-Glo, 72 h; compound alone cytotoxicity; at 10 µM
observable: viability (%)
Lab book: enter the figure in %, no units written.

IN: What value of measured viability is listed for "CCN(Cc1nc2ccccc2c(=O)[nH]1)Cc1cc(=O)oc2cc(C)c(C)cc12" ?
OUT: 62.9

IN: How about this compound: "CNC(=O)CN(C#N)c1nc(N(C)C)nc(N(C)C)n1"
OUT: 92.8

IN: How about this compound: CCOC(=O)c1ccccc1NC(=O)N1CCn2c(C)ccc2C1CC (stereo unspecified)
OUT: 84.8

IN: How about this compound: "COc1cccc(OCc2nc3c4cnn(-c5ccccc5)c4ncn3n2)c1"
OUT: 67.8

IN: How about this compound: "COC(=O)c1ccc(C)c(NS(=O)(=O)c2ccc3c(c2)OCCO3)c1"
OUT: 35

IN: How about this compound: "O=C(CSc1nnnn1Cc1ccccc1)Nc1ccc2c(c1)OCO2"
OUT: 108

----------
protocol-text: reducers of endogenous Her2 protein level, primary screen, SKBR3 breast tumor cells, AlphaScreen, ATP viability (AID 461);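 note: percent of carrier control wells set as 100% viability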
experimental-conditions: 18-24 h, measured here: SKBR3 viability, ATP luminescence, at 10 µM
observable: viability (%)
Lab book: enter the figure in %, no units written.

IN: What value of measured viability is listed for "C/C(=C\c1cc(C(=O)O)c(C)o1)CO" ?
OUT: 102

IN: How about this molecule: CC1Oc2ccccc2N(CC(=O)N(Cc2ccccc2)Cc2ccccn2)C1=O (stereo unspecified)
OUT: 108

IN: How about this molecule: "CCOC(=O)c1sc2ncn(/N=C/N(C)C)c(=O)c2c1C"
OUT: 98

IN: How about this molecule: "Cc1cc(C)n2cc(CSc3nnnn3C)nc2n1"
OUT: 84.5

IN: How about this molecule: O=C(Cn1cnc2c(nnn2Cc2ccc(Cl)cc2)c1=O)NCC1CCCO1 (stereo unspecified)
OUT: 120

IN: How about this molecule: "Cn1cc(CC(=O)Nc2cccc(C#N)c2)c2ccccc21"
OUT: 101

----------
Field: inhibition. Provide a value for each of the compounds that follow.
protocol-text: 384-well plate pilot, post-Golgi transport modulator project, inhibition of yeast transport mutant growth (AID 636)
experimental-conditions: absorbance 615 nm, about 18 h, stronger effect = higher value
Lab book: enter the figure in %, no units written.

IN: What value of measured inhibition is listed for "N[C@@H](Cc1ccccc1)c1nnc2sc(SCc3ccccc3)nn12" ?
OUT: -3.07

IN: How about this compound: O=C1CC(c2cccc(Cl)c2)Cc2nc(N3CCN(c4ccccc4)CC3)ncc21 (stereo unspecified)
OUT: 1.3

IN: How about this compound: "CCOC(=O)C1=C(C)NC(C)=C(C(=O)OCC)C1c1cc(N)ccc1OC(F)F"
OUT: 0.91

IN: How about this compound: "O=c1c2cc(N3CCOCC3)ccc2[nH]c(=S)n1CCCN1CCCCC1"
OUT: -4.59

IN: How about this compound: "COc1cc(CN2CCN(C(=O)CC(C)C)CC2)cc(OC)c1O"
OUT: -1.04

IN: How about this compound: CSCCC(NC(=O)c1occc1C)C(=O)O (stereo unspecified)
OUT: -2.63

IN: How about this compound: "CCCC(=O)Nc1nnc(Sc2ccc(N(C)C)cc2)s1"
OUT: -5.2

IN: How about this compound: "CSc1nc(N2CCOCC2)c2ccccc2n1"
OUT: -2.27

IN: How about this compound: "CC1(C)COCN1S(=O)(=O)c1ccc(C(=O)Nc2nnc(-c3ccc(Cl)s3)o2)cc1"
OUT: -5.21

IN: How about this compound: "CC(C)(C)N(Cc1cc2ccccc2[nH]c1=O)C(=O)C1CCCCC1"
OUT: -3.2

IN: How about this compound: "O=C(CSc1nc2ccccc2n1CC(=O)N1CCCC1)Nc1nccs1"
OUT: -0.92
